Origin of measurements: ChEMBL document CHEMBL1124531

Tested on: L1210
Assay: Inhibitory activity against murine L1210 leukemic cell growth
Format: functional
Details: Mus musculus, read-out: ID50 (the source's name)
pIC50: −log10 of the molar value.
Property measured: pIC50

// solved cases for pIC50 follow
[
  {
    "Chem smiles": "CC(C)NC(=O)OCCN(CCOC(=O)NC(C)C)Cc1cc(O)c2c(c1)C(=O)c1cccc(O)c1C2=O",
    "pIC50": 4.57
  },
  {
    "Chem smiles": "COc1cc(C(Br)Br)cc2c1C(=O)c1c(O)cccc1C2=O",
    "pIC50": 10.38
  },
  {
    "Chem smiles": "O=C1c2cccc(O)c2C(=O)c2c(O)cc(CNCCCl)cc21",
    "pIC50": 5.15
  },
  {
    "Chem smiles": "COc1cc(O)c2c(c1)C(=O)c1cc(C(Br)Br)cc(OC)c1C2=O",
    "pIC50": 9.00
  },
  {
    "Chem smiles": "COc1cc(O)c2c(c1)C(=O)c1cc(C(Br)Br)cc(O)c1C2=O",
    "pIC50": 9.00
  },
  {
    "Chem smiles": "COc1cccc2c1C(=O)c1c(OC)cc(CBr)cc1C2=O",
    "pIC50": 5.04
  },
  {
    "Chem smiles": "O=C1c2cccc(O)c2C(=O)c2c(O)cc(CN3CCCC3)cc21",
    "pIC50": 5.80
  },
  {
    "Chem smiles": "CCN(CC)Cc1cc(O)c2c(c1)C(=O)c1cc(OC)cc(O)c1C2=O",
    "pIC50": 5.92
  }
]

(P) CCNCc1cc(OC)c2c(c1)C(=O)c1cccc(OC)c1C2=O
(Q) CCN(CC)Cc1cc(OC)c2c(c1)C(=O)c1cc(OC)cc(O)c1C2=O
(R) COc1cc(O)c2c(c1)C(=O)c1cc(CNCCO)cc(O)c1C2=O
(S) CNC(=O)OCCN(CCOC(=O)NC)Cc1cc(OC)c2c(c1)C(=O)c1cccc(OC)c1C2=O
Request: Ranking field: pIC50; order: falling. Form entry: labels listed in requested order.
Response: R, P, Q, S
(R: 6.30, P: 5.92, Q: 5.16, S: 4.14)

----------
System: Nucleic Acid
Assay: Ratio for human acute promyelocytic leukemia cells(HL-60) cell growth inhibition and [3H]TdR incorporation into DNA in HL-60 cells
Format: functional, cell-based
Property measured: Ratio
Answer with a number only.

// solved cases for Ratio follow
[
  {
    "Chem smiles": "COc1cccc2c1C(=O)c1c(OC)cc(C)cc1C2=O",
    "Test system": "Nucleic Acid",
    "Ratio": 1.9
  },
  {
    "Chem smiles": "CCCCNCc1cc(O)c2c(c1)C(=O)c1cccc(O)c1C2=O",
    "Test system": "Nucleic Acid",
    "Ratio": 6.1
  },
  {
    "Chem smiles": "O=C1c2cccc(O)c2C(=O)c2c(O)cc(CNCCO)cc21",
    "Test system": "Nucleic Acid",
    "Ratio": 17.4
  },
  {
    "Chem smiles": "O=C1c2cccc(O)c2C(=O)c2c(O)cc(CN3CCCCC3)cc21",
    "Test system": "Nucleic Acid",
    "Ratio": 22.5
  },
  {
    "Chem smiles": "COc1cc(OC)c2c(c1)C(=O)c1cc(CBr)cc(OC)c1C2=O",
    "Test system": "Nucleic Acid",
    "Ratio": 0.14
  }
]

Would you kindly look at the next entry?
Request: Query Ratio for COc1cc(O)c2c(c1)C(=O)c1cc(CBr)cc(O)c1C2=O
Response: 13.6

----------
Entries and their measured Ratio follow.
System: Nucleic Acid
Assay: Ratio for human acute promyelocytic leukemia cells(HL-60) cell growth inhibition and [3H]TdR incorporation into DNA in HL-60 cells
Format: functional, cell-based
Answer with a number only.

Request: Query Ratio for COc1cccc2c1C(=O)c1c(OC)cc(CN(CCO)CCO)cc1C2=O
Response: 0.03

----------
Entries and their measured ID50 follow.
Test system: Nucleic Acid
Assay: Inhibitory activity against [3H]TdR incorporation into DNA in HL-60 cells during the initial 30-min period.
Type: functional, cell-based
Details: Homo sapiens
API: value field is a number in µM; no unit string.

[
  {
    "Chem smiles": "CN(C)Cc1cc(O)c2c(c1)C(=O)c1cccc(O)c1C2=O",
    "Unit string": "µM",
    "ID50": 9.3
  },
  {
    "Chem smiles": "CNC(=O)OCCN(CCOC(=O)NC)Cc1cc(OC)c2c(c1)C(=O)c1cccc(O)c1C2=O",
    "Unit string": "µM",
    "ID50": 12
  },
  {
    "Chem smiles": "COc1cc(OC)c2c(c1)C(=O)c1cc(CNCCCl)cc(OC)c1C2=O",
    "Unit string": "µM",
    "ID50": 18
  },
  {
    "Chem smiles": "O=C1c2cccc(O)c2C(=O)c2c(O)cc(CBr)cc21",
    "Unit string": "µM",
    "ID50": 16
  },
  {
    "Chem smiles": "COc1cccc2c1C(=O)c1c(OC)cc(C)cc1C2=O",
    "Unit string": "µM",
    "ID50": 19
  }
]

Request: Query ID50 for NCc1cc(O)c2c(c1)C(=O)c1cccc(O)c1C2=O
Response: 25

Request: Query ID50 for COc1cccc2c1C(=O)c1c(OC)cc(C(Br)Br)cc1C2=O
Response: 9

Request: Query ID50 for CCCCNCc1cc(O)c2c(c1)C(=O)c1cccc(O)c1C2=O
Response: 25

Request: Query ID50 for CCN(CC)Cc1cc(OC)c2c(c1)C(=O)c1cc(OC)cc(OC)c1C2=O
Response: 4.2

Request: Query ID50 for COc1cccc2c1C(=O)c1c(OC)cc(CN(CCCl)CCCl)cc1C2=O
Response: 14

Request: Query ID50 for COc1cc(O)c2c(c1)C(=O)c1cc(CN(CCO)CCO)cc(OC)c1C2=O
Response: 9.6

Request: Query ID50 for COc1cc(O)c2c(c1)C(=O)c1cc(CN(CCCl)CCCl)cc(OC)c1C2=O
Response: 5.4

----------
System: Nucleic Acid
Experiment: Inhibitory activity against [3H]TdR incorporation into DNA in HL-60 cells during the initial 30-min period.
Format: functional, cell-based
Conditions: Homo sapiens
Property measured: ID50 (µM)
API: value field is a number in µM; no unit string.

[
  {
    "Chem smiles": "COc1cc(CN(CCCl)CCCl)cc2c1C(=O)c1c(O)cccc1C2=O",
    "ID50, µM": 15
  },
  {
    "Chem smiles": "O=C1c2cccc(O)c2C(=O)c2c(O)cc(CN3CCCCC3)cc21",
    "ID50, µM": 63
  },
  {
    "Chem smiles": "CC(C)NC(=O)OCCN(CCOC(=O)NC(C)C)Cc1cc(O)c2c(c1)C(=O)c1cccc(O)c1C2=O",
    "ID50, µM": 17
  },
  {
    "Chem smiles": "O=C1c2cccc(O)c2C(=O)c2c(O)cc(CN(CCO)CCO)cc21",
    "ID50, µM": 14
  },
  {
    "Chem smiles": "CNC(=O)OCCN(CCOC(=O)NC)Cc1cc(O)c2c(c1)C(=O)c1cccc(O)c1C2=O",
    "ID50, µM": 28
  },
  {
    "Chem smiles": "CCN(CC)Cc1cc(OC)c2c(c1)C(=O)c1cccc(O)c1C2=O",
    "ID50, µM": 14
  },
  {
    "Chem smiles": "COc1cccc2c1C(=O)c1c(OC)cc(CN(CCO)CCO)cc1C2=O",
    "ID50, µM": 14
  },
  {
    "Chem smiles": "O=C1c2cccc(O)c2C(=O)c2c(O)cc(CNCCO)cc21",
    "ID50, µM": 15
  },
  {
    "Chem smiles": "COc1cc(O)c2c(c1)C(=O)c1cc(C(Br)Br)cc(O)c1C2=O",
    "ID50, µM": 110
  }
]

Would you kindly look at the next entry?
Request: Query ID50 for CNC(=O)OCCN(CCOC(=O)NC)Cc1cc(OC)c2c(c1)C(=O)c1cccc(OC)c1C2=O
Response: 9.4

----------
System: L1210
Experiment: Inhibitory activity against murine L1210 leukemic cell growth
Format: functional
Details: Mus musculus, read-out: ID50 (the source's name)
Property measured: IC50 (µM)

(I) CCN(CC)Cc1cc(OC)c2c(c1)C(=O)c1cccc(O)c1C2=O
(II) O=C1c2cccc(O)c2C(=O)c2c(O)cc(CNCCCO)cc21
(III) CCN(CC)Cc1cc(OC)c2c(c1)C(=O)c1cc(OC)cc(OC)c1C2=O
Request: List these items ordered by IC50, big to small. Form entry: labels listed in requested order.
Response: I, III, II
(I: 12 µM, III: 6.9 µM, II: 0.67 µM)
